The measurements presented in this section are drawn from patent US20240343814A1.

target: Recombinant human his-tagged IGF 1R extracellular domain protein (human) (UniProt P08069); test: SPR, captured IgG, IGF-1R ECD-his analyte, dissociation pH 7.4
Listed binders paired with reported koff
Give just the number in s⁻¹; leave the unit off.

| Binder | Unit Tag | koff |
| --- | --- | --- |
| VRDN-02550 (antibody, V domains shown) VH: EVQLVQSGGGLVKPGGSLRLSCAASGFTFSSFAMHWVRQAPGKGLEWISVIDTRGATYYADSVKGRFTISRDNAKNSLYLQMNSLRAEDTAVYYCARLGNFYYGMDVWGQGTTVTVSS VL: EIVLTQSPGTLSVSPGERATLSCRASQSIGSSLHWYQQKPGQAPRLLIKYASQSLSGIPDRFSGSGSGTDFTLTISRLEPEDFAVYYCHQSSRHPHTFGQGTKVEIK | s⁻¹ | 2.09e-05 |

Shifting focus to the binder that follows.
Reported koff for VRDN-02567 (antibody, V domains shown) VH: EVQLVQSGGGLVKPGGSLRLSCAASGFTFSSFAMHWVRQAPGKGLEWISVIDTRGATYYADSVKGRFTISRDNAKNSLYLQMNSLRAEDTAVYYCARLGNFYYHHDVWGQGTTVTVSS VL: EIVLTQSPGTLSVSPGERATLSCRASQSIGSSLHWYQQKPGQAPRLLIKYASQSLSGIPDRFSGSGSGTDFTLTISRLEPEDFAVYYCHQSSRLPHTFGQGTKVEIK was 0.000473
